# Test system: KAI1 promoter
# ASSAY NOTES: KAI1 promoter luciferase reporter assay in transfected Caco2 cells
# Type: cell-based, human
# ASSAY CONTEXT: Homo sapiens, Caco-2, 16 h, 1 μM compound, 16 hours, transfected Caco2 cells, luciferase activity relative to DMSO control (=1); read-out: Relative KAI promoter activity
# Description: Experiments were conducted to evaluate the metastasis-related promoter activity-increasing effects of the compounds according to the present invention. Specifically, the KAI1 promoter reporter vector was used. In this case, the pRL-TK vector, a vector expressing renilla luciferase, was used as an internal control indicating the transfection efficiency in each transfected well. […]
REPORTED ENDPOINT: fold induction at 1 µM

Ask | Please give the documented fold induction at 1 µM of `CCOC(=O)N1CCN(Cc2ccccc2C(=O)NCC(=O)c2ccccc2)CC1`
Reply | 1.14

Ask | Please give the documented fold induction at 1 µM of `COc1ccccc1C(=O)N1CCC(Oc2ccccc2C(=O)NCC(=O)c2ccccc2)CC1`
Reply | 0.99

Ask | Please give the documented fold induction at 1 µM of `O=C(CNC(=O)c1cccs1)c1ccc(Cl)cc1`
Reply | 0.91

Ask | Please give the documented fold induction at 1 µM of `COc1ccc(C(=O)NCC(=O)c2ccccc2)cc1`
Reply | 1.75

Ask | Please give the documented fold induction at 1 µM of `O=C(CNC(=O)c1ccccc1CN1CCC(N2CCCCC2)CC1)c1ccccc1`
Reply | 1.61

Would you mind giving fold induction at 1 µM for every compound in the list below?
1. O=C(CNC(=O)c1ccccc1OC1CCN(C(=O)c2ccc(F)c(F)c2)CC1)c1ccccc1
2. CN1CCN(Cc2cccc(C(=O)NCC(=O)c3ccccc3)c2)CC1
3. CN(CCO)Cc1ccc(C(=O)NCC(=O)c2ccccc2)cc1
4. CCC(=O)N1CCC(Oc2ccccc2C(=O)NCC(=O)c2ccccc2)CC1

Reply |
1: 0.84; 2: 0.963; 3: 3.56; 4: 0.98

Would you mind giving fold induction at 1 µM for every compound in the list below?
1. O=C(CNC(=O)c1ccc(CN2CCc3ccccc3C2)cc1)c1ccccc1
2. C/C=C/C(=O)NCC(=O)c1cccc(OC)c1
3. O=C(CNC(=O)c1ccc(Cl)cc1)c1cccnc1
4. C=CCN(CC=C)Cc1ccccc1C(=O)NCC(=O)c1ccccc1
5. O=C(CCc1ccccc1)NCC(=O)c1ccccc1

Reply |
1. 2.08
2. 1.14
3. 1.32
4. 1.85
5. 1.14

Ask | Please give the documented fold induction at 1 µM of `O=C(CNC(=O)c1ccccc1OCC(=O)N1CCc2ccccc2C1)c1ccccc1`
Reply | 1.01

src = patent US20230150924A1
